- assay-explanation: Ex vivo biodistribution in PC-3 tumor-bearing mice
- condition: male, NRG, mouse, testes, iv, total radioactivity, Biodistribution Testes Mean, 1 h post-injection, mice bearing PC-3 tumor xenografts, n = 4
outcome-measure: tissue uptake at 1 h (%ID/g)
Your answer should be a plain number; it is taken to be in %ID/g.

For this compound ( CC(C)C[C@@H](CN1CSC[C@H]1C(N)=O)NC(=O)[C@H](Cc1cnc[nH]1)NC(=O)CN(C)C(=O)[C@@H](NC(=O)[C@H](C)NC(=O)[C@H](Cc1c[nH]c2ccccc12)NC(=O)[C@H](CCC(N)=O)NC(=O)[C@@H](Cc1ccccc1)NC(=O)CN1CCC(NC(=O)CN2CCN(CC(=O)O)CCN(CC(=O)O)CCN(CC(=O)O)CC2)CC1)C(C)C [^68Ga-LW01090, metal not drawn] ), measured tissue uptake at 1 h is 0.23

For this compound ( CC(C)C[C@@H](CN1CSC[C@H]1C(N)=O)NC(=O)[C@H](Cc1c[nH]cn1)NC(=O)CNC(=O)[C@@H](NC(=O)[C@H](C)NC(=O)[C@H](Cc1c[nH]c2ccccc12)NC(=O)[C@H](CCC(N)=O)NC(=O)[C@@H](Cc1ccccc1)NC(=O)CN1CCC(NC(=O)CN2CCN(CC(=O)O)CCN(CC(=O)O)CCN(CC(=O)O)CC2)CC1)C(C)C [^68Ga-LW01045, metal not drawn] ), measured tissue uptake at 1 h is 0.19

For this compound ( CC(C)C[C@H](NC(=O)[C@H](Cc1c[nH]cn1)NC(=O)CNC(=O)[C@@H](NC(=O)[C@H](C)NC(=O)[C@H](Cc1c[nH]c2ccccc12)NC(=O)[C@H](CCC(N)=O)NC(=O)[C@@H](Cc1ccc2ccccc2c1)NC(=O)CN1CCC(NC(=O)CN2CCN(CC(=O)O)CCN(CC(=O)O)CCN(CC(=O)O)CC2)CC1)C(C)C)C(=O)N1CSC[C@H]1C(N)=O [^68Ga-LW01029, metal not drawn] ), measured tissue uptake at 1 h is 0.33

----------
- study-target: GRPR (Homo sapiens, UniProt P30550)
- Construct: endogenous in cells
- Sequence (P30550 whole entry): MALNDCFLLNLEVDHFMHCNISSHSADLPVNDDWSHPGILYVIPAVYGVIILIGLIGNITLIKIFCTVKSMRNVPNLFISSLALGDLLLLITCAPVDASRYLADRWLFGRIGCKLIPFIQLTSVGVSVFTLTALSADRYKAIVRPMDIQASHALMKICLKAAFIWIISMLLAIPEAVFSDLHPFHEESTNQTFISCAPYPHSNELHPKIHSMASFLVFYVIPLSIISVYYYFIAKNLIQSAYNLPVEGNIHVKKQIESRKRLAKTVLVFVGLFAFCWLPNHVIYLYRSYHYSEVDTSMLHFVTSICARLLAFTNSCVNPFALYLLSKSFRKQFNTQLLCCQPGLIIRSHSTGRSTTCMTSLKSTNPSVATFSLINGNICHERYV
- assay-explanation: In vitro competition binding assay, displacement of [^125I-Tyr^4]bombesin on GRPR-expressing PC-3 cells
- condition: n = 2-3, read-out: Binding affinities Ki Mean
outcome-measure: Ki (µM)
Your answer should be a plain number; it is taken to be in µM.

For this molecule ( CC(C)C[C@H](NC(=O)[C@H](Cc1c[nH]cn1)NC(=O)CNC(=O)[C@@H](NC(=O)[C@H](C)NC(=O)[C@H](Cc1c[nH]c2cc(F)ccc12)NC(=O)[C@H](CCC(N)=O)NC(=O)[C@H](N)Cc1ccccc1)C(C)C)C(=O)N1CSC[C@H]1C(N)=O ), measured Ki is 0.0469

For this molecule ( CC(C)C[C@H](NC(=O)[C@H](Cc1cnc[nH]1)NC(=O)CNC(=O)[C@@H](NC(=O)[C@H](C)NC(=O)[C@H](Cc1cn(C)c2ccccc12)NC(=O)[C@H](CCC(N)=O)NC(=O)[C@H](N)Cc1ccccc1)C(C)C)C(=O)N1CSC[C@H]1C(N)=O ), measured Ki is 0.0357

For this molecule ( CC(C)C[C@H](NC(=O)[C@H](Cc1c[nH]cn1)NC(=O)CNC(=O)[C@@H](NC(=O)[C@H](C)NC(=O)[C@H](Cc1c[nH]c2c(F)cccc12)NC(=O)[C@H](CCC(N)=O)NC(=O)[C@H](N)Cc1ccccc1)C(C)C)C(=O)N1CSC[C@H]1C(N)=O ), measured Ki is 0.00938

For this molecule ( CC(C)C[C@H](NC(=O)[C@H](Cc1cnc[nH]1)N(C)C(=O)CNC(=O)[C@@H](NC(=O)[C@H](C)NC(=O)[C@H](Cc1c[nH]c2ccccc12)NC(=O)[C@H](CCC(N)=O)NC(=O)[C@H](N)Cc1ccccc1)C(C)C)C(=O)N1CSC[C@H]1C(N)=O ), measured Ki is 0.009

For this molecule ( CC(C)C[C@H](NC(=O)[C@H](Cc1c[nH]cn1)NC(=O)CNC(=O)[C@@H](NC(=O)[C@H](C)NC(=O)[C@H](Cc1c[nH]c2ccccc12)NC(=O)[C@H](CCC(N)=O)NC(=O)[C@H](N)Cc1ccccc1)C1CC1)C(=O)N1CSC[C@H]1C(N)=O ), measured Ki is 0.202

For this molecule ( CC(C)C[C@H](NC(=O)[C@H](Cc1c[nH]cn1)NC(=O)CNC(=O)[C@@H](NC(=O)[C@H](C)NC(=O)[C@H](Cc1c[nH]c2ncccc12)NC(=O)[C@H](CCC(N)=O)NC(=O)[C@H](N)Cc1ccccc1)C(C)C)C(=O)N1CSC[C@H]1C(N)=O ), measured Ki is 0.166
